Catalogue of melting point readings, one per entry.

Compound	melting point, °C
CCN(CCO)c1ccc(N=Nc2ccc([N+](=O)[O-])cc2)cc1	161
COc1ccc(COC(=O)NN)cc1	76
O=C(CO)CO	90
CC(C)(C)C=C=C=C=CC(C)(C)C	135
CCc1cnc(C2=NC(C)(C(C)C)C(=O)N2)c(C(=O)O)c1 (stereo not drawn)	171
CCNS(=O)(=O)c1ccc(C)cc1	64

====

Catalogue of melting point readings, one per entry.

Chemical structure	melting point [°C]
CC1(C)OC(=O)C(=Cc2cccc([N+](=O)[O-])c2)C(=O)O1	322
COc1ccc(C(N)=O)cc1N	158
Nc1nn2c(C(F)(F)F)cc(-c3cccs3)nc2c1/N=N/c1ccc(C(=O)O)cc1	184
O=C1C(Cl)=C(Cl)C(=O)C(Cl)=C1Cl	290
Nc1ccc(CC(=O)c2ccc(N)cc2)cc1	145
CCOC(=O)Cn1nc(-c2ccccc2)c2ccccc2c1=O	224
Cc1cccc(/N=N/c2c(C)[nH]c(=S)c(C#N)c2C)c1C	259

====

The threshold is 80 °C. Values of melting point beneath it are tagged 1 (yes); values meeting or exceeding it are tagged 0 (no).

Compound	Assigned label
O=C(O)c1ccccc1-n1cccc1	0 (no)
CC(C)c1ccc(C(C)C)cc1	1 (yes)
CCC(Br)C(=O)O (configuration not stated)	1 (yes)
N#C/C(=N\Nc1ccc(Cl)cc1)c1nc2ccccc2s1	0 (no)
COC(=O)c1csc(C=O)c1	0 (no)

====

Measured property: melting point

Chemical structure	Endpoint value
N#Cc1nc(C#N)nc(C#N)n1	119 °C
Nc1ccccc1/C=C/c1nc2ccccc2[nH]1	213 °C
Cc1csc(-c2cn(C(C)C)c(=O)n(CC(=O)NN)c2=O)n1	260 to 263 °C
COc1ccc(OC)c(C=C[N+](=O)[O-])c1	114 to 119 °C
CC(C)(C)OC(=O)NCCCC[C@H](NC(=O)OCC1c2ccccc2-c2ccccc21)C(=O)O	134 to 137 °C
O=C1CCCN1c1ccc(Cl)cc1	95 to 98 °C

====

Catalogue of melting point readings, one per entry.
Measured property: melting point (°C)

Molecule	Measured property	Endpoint value
COc1ccc2c(c1)CCC1C2CCC2(C)C(=O)C(Cl)CC12 (configuration not stated)	melting point	180
Cc1nc(-c2cnccn2)sc1C(=O)CBr	melting point	100
O=[N+]([O-])c1ccc(C(Br)C(Br)c2ccc(C(Br)C(Br)c3ccc([N+](=O)[O-])cc3[N+](=O)[O-])cc2)c([N+](=O)[O-])c1 (configuration not stated)	melting point	265
CCOC(=O)C1CC(=O)C(=C(O)C2CC2)C(=O)C1 (configuration not stated)	melting point	36
Cn1c(/C(C#N)=C/c2ccc(F)cc2)nc2ccccc21	melting point	133

====

Catalogue of melting point readings, one per entry.

Compound	melting point / °C
CC(=O)Oc1c(-c2ccccn2)[nH]c2ccccc12	130
CCN(CC)C(=O)C1=C(C)NC(=O)NC1c1ccccc1 (stereo unspecified)	181
COC(=O)C1=C(C)NC(C)=C(C(=O)On2nnc3ccccc32)[C@H]1c1ccc([N+](=O)[O-])cc1	217
C#CC1(O)C=CC(O)(C#C)C=C1 (stereo unspecified)	125

====

Catalogue of melting point readings, one per entry.

Compound	melting point (°C)
Cc1ccc(O)cc1Br	56
C#CC1(OC(C)=O)CCC2C3CCC4=CC(=NO)CCC4C3CCC21CC (stereo not drawn)	216
Cc1ccc(CO)c(C)c1	22
Cc1cc(O)nc2ccccc12	226
COc1ccc(OC(C)=O)cc1	32
O=C1CSC(=S)N1c1ccccc1	194
CCCC(CC)c1ccccc1 (stereo not drawn)	-55.4
O=C(O)Cc1ccccc1CC(=O)O	151
O=C1c2ccc(O)cc2C(=O)c2cc(O)ccc21	354

====

Measured property: melting point (°C)

Molecule	Endpoint value
N#C/C(=N\Nc1cccc(O)c1)c1nc2ccccc2s1	175
Cc1ccc(O)c(C(O)c2ccccc2)c1 (stereo not drawn)	103
CCOC(=O)c1cc2c(=O)oc3ccccc3c2nc1N	192
NC(=O)c1cnccc1/C=C/c1ccccc1	200
CC1(C)CC(=O)C(=NNc2ccccc2)C(=O)C1	148
ClC(Cl)=C(c1ccc(Cl)cc1)c1ccc(Cl)cc1	89
NC(=O)C=CC(N)=O	276
CCC1(O)CCC2(C)C(CCC3C2CCC2(C)C3CCC23OCCO3)C1 (stereo not drawn)	127
Cc1cc2ccccc2c(-c2ccccc2)n1	87

====

Catalogue of melting point readings, one per entry.

Compound	melting point
C=CCOc1c(Cc2cc(C(C)=O)c(O)c(C)c2OCC=C)cc(C(C)=O)c(O)c1C	143 °C
CC1CCC2C1C1C(CCC2(C)O)C1(C)C (centres undefined)	105 °C
CCC(C)n1c(=O)[nH]c(C)c(Br)c1=O (centres undefined)	158 °C
O=C(O)C1CCCC1	4 °C
Cn1nnc2cc(CBr)ccc21	120 °C
CN(C(=O)CCl)c1c2c(nn1C)CCCC2	84 to 86 °C
Cc1cc2c(C#N)c3ccc4ccccc4n3c(=O)c2c(C)n1	243 °C
O=C(C=Cc1ccccc1)c1cccc(C(=O)C=Cc2ccccc2)c1	142 °C
CSC(S)=Nc1ccc(C)cc1	175 to 176 °C
O=C1C2=C(NC1C(=O)c1ccc(Br)cc1)Oc1c(c(=O)oc3ccccc13)C2c1ccc(Br)cc1 (centres undefined)	230 °C
CCCCCCCCCCCCCCCC(CCCC)c1ccccc1 (centres undefined)	30.2 °C
CN1C(=O)N2CCc3ccccc3C2(c2ccc(Cl)cc2)C1=O (centres undefined)	121 to 122 °C
CCN(CC)CN1C(=O)/C(=C\c2ccc(Cl)cc2)SC1=S	89 °C
Cc1ccccc1C(=O)Cc1ccccc1C(=O)O	138 °C
CCCSc1ccc2[nH]c(NC(=O)OC)nc2c1	208 °C
Fc1ncccc1-c1ccc(Cl)cn1	100 °C
Cc1ccc(Sc2ccc(C=O)cc2[N+](=O)[O-])cc1	138 to 141 °C
Nc1c(I)cc(I)c(C(=O)O)c1I	196 to 199 °C
COC(=O)c1csc(S(=O)(=O)Cl)c1OC	93 to 96 °C
Cc1cnc(Cl)nc1Cl	26 °C
C[Si](C)(c1ccccc1)[Si](C)(C)c1ccccc1	33 to 38 °C
ON=Cc1ccc(Br)cc1	118 °C
O=C1OC(c2ccc(Cl)cc2)=NC1=Cc1ccccc1	181 to 182 °C
O=C(O)Cc1c[nH]c2ccc(Br)cc12	141 to 148 °C
OCc1ccc(N2CCCC2)nc1	61 to 62 °C
CCOC(=O)CCC(C)C1CCC2C3C(=O)CC4CC(O)CCC4(C)C3CC(O)C12C (centres undefined)	161 °C
O=[N+]([O-])c1cccnc1N1CCOCC1	89 to 91 °C
CC(COc1ccc(Oc2ccccc2)cc1)Oc1ccccn1 (centres undefined)	49 °C
Oc1c(Cl)cc(Cl)cc1Sc1cc(Cl)cc(Cl)c1O	188 °C
CC(O)CCO (centres undefined)	-54 °C
NNC(=S)NCc1ccc2c(c1)OCO2	158 to 160 °C
CC(C)c1nsc(N)n1	119 to 120 °C
Cn1cccc1C(=O)O	137 °C
O=C1CCCc2ccc(Br)cc21	78 to 79 °C
CCN(CC)C(=O)CC(C)=O	-73 °C
Nc1ccc(CN2CCS(=O)(=O)CC2)cc1	156 °C
CCC(C(N)=O)n1nnc2ccccc21 (centres undefined)	143 °C
CNC(=O)Oc1ccc(N(C)C)c(C)c1	93.9 °C
CC12CCC(C1(C)C)C(CCCc1ccccc1)(C1(CCCc3ccccc3)C(=O)C3(C)CCC1C3(C)C)C2=O (centres undefined)	250 °C
O=C1NN(c2ccccc2)C(=O)/C1=C/c1ccccc1	275 °C
O=C(O)c1cc2cc(Cl)cc(Br)c2oc1=O	206 to 208 °C
CC(C)(C)OC(=O)N[C@@H](Cc1cccc(C#N)c1)C(=O)O	124 °C
CCOC(=O)c1c(N)sc2c1CCN(C(=O)OC(C)(C)C)C2	153 °C
Cc1cc(CCN2CCN(c3cccc(Cl)c3)CC2)n[nH]1	106 °C
Cc1[nH]c2ccccc2c1CC(=O)O	200 °C
COc1cc(C(=O)c2ccc(Cl)cc2Cl)c([N+](=O)[O-])cc1OC	114 °C
COc1cc(O)c(C(=O)c2ccccc2)cc1S(=O)(=O)O	170 °C
O=C(Cc1ccc(Oc2ccccc2)cc1)c1ccccc1	58.3 to 59.9 °C
O=C(O)c1cc(Br)cs1	121 °C

====

Catalogue of melting point readings, one per entry.
Measured property: melting point (°C)

Compound	Endpoint value
CC(C)OC(=O)C1(S(=O)(=O)c2ccc(Cl)cc2)CCCC1	92.5
CC(=O)CCc1oc2c([N+](=O)[O-])cccc2c1-c1ccc(C)o1	103
CCC(=O)C(CC(C)N1CCOCC1)(c1ccccc1)c1ccccc1 (stereo not given)	75
CC(C)(N)C(=O)O	335
c1ccc2c(c1)Cc1ccccc1S2	128
N#CCCCOc1ccccc1	45.5
Cc1ccc(OCC(=O)O)c(C)c1	141
CCOC(=O)/C(=N\Nc1ccc(C)cc1C)C(=O)C(F)(F)F	139
Oc1ccc(Cl)cc1Cc1cc(Cl)ccc1O	178
CCCN(CCC)S(=O)(=O)c1ccc(C(=O)O)cc1	198
C1=CC2(CC2)C2C1C1C=CC2C12CC2 (stereo not given)	45
CC1(C)OC(=O)C(=NNc2cccc([N+](=O)[O-])c2)C(=O)O1	192
Cc1[nH]c(C)c(C)c1C	111
c1ccc(CCNc2cccc3cccnc23)cc1	57.6
COCCN(C(=O)CCl)c1c(C)cccc1C	46.3
CCCCCCOC(=O)CCCC	-63.1
Clc1ccc(Cn2c(CN3CCCC3)nc3ccccc32)cc1	167
CC=Cc1ccc(OCC)c(O)c1	87
C=C1C(C)CCC2(C)C3=C(C(=O)C4(CC4C)C(OC(C)=O)C3=O)C(OC(C)=O)C(OC(C)=O)C12 (stereo not given)	173
Nc1ncc(C(F)(F)F)cc1Br	100
CC(C)(C)OC(=O)N[C@H](COCc1ccccc1)C(=O)O	61.5
COc1ccc(-c2nn3c(C)nnc3s2)cc1	177
Cc1cc(Cl)ccc1Cl	5
CC(C)Oc1ccc2c(=O)c(-c3ccccc3)coc2c1	115
CN1CCN(C)C(C(=O)NN)C1 (stereo not given)	113
Cc1cccc(OP(=O)(Oc2cccc(C)c2)Oc2cccc(C)c2)c1	25.5
Cc1cccc(Nc2ccccc2C(=O)O)c1C	231
Cc1ccc2cc(C(=O)O)ccc2n1	250
CC1(C)OCC(CO)O1 (stereo not given)	-27
CCCOC(=O)C1=C(C)NC(=S)NC1c1ccccc1 (stereo not given)	169
C1=Cc2ccccc2CC1	-8
O=C1/C(=N\Nc2cccc([N+](=O)[O-])c2)C(C(F)(F)F)=NN1c1ccccc1	150
CC(=O)c1c2c(c(C(C)=O)c3c1CCCN3)NCCC2	143
